Recorded values, source patent US4920127A.

test system: von Bezold-Jarisch reflex evoked by 5-HT; test: Antagonism of the von Bezold-Jarisch reflex evoked by 5-HT in the anaesthetised rat; assay type: in vivo; details: iv, male rats, urethane anaesthesia, compounds intravenously, 5-HT usually 6 μg/kg i.v., heart rate changes, read-out: ED50 (concentration required to reduce the 5HT-evoked response to 50% of the control response)
Structures can show the parent of a compound that is named as a salt.
OUTCOME_MEASURE: ED50 (µg/kg)
// units = µg/kg; emit number, no label

| COMPOUND | UNIT_OF_MEASUREMENT | ED50 |
| --- | --- | --- |
| CN1[C@@H]2CC[C@H]1C[C@@H](NC(=O)N1CC3(CCCCC3)c3ccccc31)C2 | µg/kg | 3.6 |
| O=C(NC1CN2CCC1CC2)N1CC(c2ccccc2)c2ccccc21 (stereo not shown) [Compound 8, hydrochloride] | µg/kg | 1.2 |
| CN1[C@@H]2CC[C@H]1C[C@@H](NC(=O)N1CC3(CCCC3)c3ccccc31)C2 | µg/kg | 1.8 |

Kindly consider the entry below.
Query block: // query ED50 value for entry `CN1[C@@H]2CC[C@H]1C[C@@H](NC(=O)N1CC3(CC3)c3ccccc31)C2`
Result block: 3.5
